testReadout: melting point

Here's what some known entries look like.
{"compound": "NS(=O)(=O)c1ccc(NCC(Cc2n[nH]c(=S)n2-c2ccccc2)c2n[nH]c(=S)n2-c2ccccc2)cc1 (stereo not shown) [Compound 25a]", "melting point": "258 to 259 °C"}
{"compound": "NS(=O)(=O)c1ccc(NCC(CC(=O)NN=Cc2ccccc2)C(=O)NN=Cc2ccccc2)c(Cl)c1 (stereo not shown) [Compound 6b]", "melting point": "212 to 213 °C"}
{"compound": "NS(=O)(=O)c1ccc(NCC(CC(=O)NN=Cc2ccc(O)cc2)C(=O)NN=Cc2ccc(O)cc2)cc1 (stereo not shown) [Compound 9a]", "melting point": "186 to 187 °C"}
{"compound": "CNC(=S)NNC(=O)CC(CNc1ccc(S(N)(=O)=O)cc1)C(=O)NNC(=S)NC (stereo not shown) [Compound 22a]", "melting point": "192 to 193 °C"}
{"compound": "NS(=O)(=O)c1ccc(NCC(CC(=O)NN=Cc2ccccc2[N+](=O)[O-])C(=O)NN=Cc2ccccc2[N+](=O)[O-])cc1 (stereo not shown) [Compound 15a]", "melting point": "197 to 198 °C"}

State the recorded melting point for this entry: NS(=O)(=O)c1ccc(NCC(CC(=O)NNC(=S)Nc2ccccc2)C(=O)NNC(=S)Nc2ccccc2)c(Cl)c1 (stereo not shown) [Compound 23b]
158 to 159 °C

State the recorded melting point for this entry: CNC(=S)NNC(=O)CC(CNc1ccc(S(N)(=O)=O)cc1Cl)C(=O)NNC(=S)NC (stereo not shown) [Compound 22b]
212 to 213 °C
